molecular target: UniProt Q9HBX9; test: RXFP1 Hu cAMP (Test A); assay type: cell-based; parameters: expressed in transfected cells; host or cells: Jump-In T-REx CHO-K1 cells (ThermoFisher), induced with 10 ng/ml doxycycline for 24 h; conditions: RXFP1 Hu cAMP; read-out: Test A EC50
Sequence (Q9HBX9 whole entry): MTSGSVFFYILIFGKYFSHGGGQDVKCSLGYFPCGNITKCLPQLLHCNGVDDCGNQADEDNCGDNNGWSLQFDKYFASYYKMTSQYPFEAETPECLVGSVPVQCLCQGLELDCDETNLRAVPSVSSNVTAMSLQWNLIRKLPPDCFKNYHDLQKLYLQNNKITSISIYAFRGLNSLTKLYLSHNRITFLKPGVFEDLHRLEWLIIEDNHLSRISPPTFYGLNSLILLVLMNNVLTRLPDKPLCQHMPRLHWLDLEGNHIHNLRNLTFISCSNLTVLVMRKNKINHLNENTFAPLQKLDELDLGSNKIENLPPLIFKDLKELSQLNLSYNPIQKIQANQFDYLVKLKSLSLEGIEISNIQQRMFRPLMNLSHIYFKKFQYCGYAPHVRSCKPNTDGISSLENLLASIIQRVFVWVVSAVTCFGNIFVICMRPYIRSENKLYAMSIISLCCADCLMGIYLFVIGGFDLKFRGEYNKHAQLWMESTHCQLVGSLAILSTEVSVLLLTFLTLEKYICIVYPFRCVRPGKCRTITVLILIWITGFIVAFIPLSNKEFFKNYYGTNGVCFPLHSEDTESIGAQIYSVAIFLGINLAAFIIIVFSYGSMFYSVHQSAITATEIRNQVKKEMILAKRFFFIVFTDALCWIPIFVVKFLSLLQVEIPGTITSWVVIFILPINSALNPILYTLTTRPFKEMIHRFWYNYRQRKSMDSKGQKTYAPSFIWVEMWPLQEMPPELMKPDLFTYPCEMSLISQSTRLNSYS
# key: entry, value: pEC50
The quantity pEC50 is defined as the negative base-10 logarithm of the molar concentration.

Field: example entries. Status: answers known.
INSERT INTO results (molecule, reading) VALUES
  ('COc1cc(F)c(O[C@H]2CC[C@@](C)(C(=O)O)CC2)cc1C(=O)N[C@@H]1CCC[C@@H]1C(=O)NCC1(C)CC1 [Example 68]', 6.08),
  ('COc1cc(F)c(O[C@H]2CC[C@@](C)(C(=O)O)CC2)cc1C(=O)Nc1cc2ccccc2cc1C(=O)NCC1(C)CCC1 [Example 215]', 6.70),
  ('COc1cc(F)c(-c2cccc(C(=O)O)c2)cc1C(=O)N[C@H]1[C@@H](C(=O)Nc2cccc(S(=O)(=O)C(F)(F)F)c2)[C@@H]2C=C[C@H]1C2 (racemic) [Example 225]', 6.62),
  ('COc1cc(F)c(O[C@H]2CC[C@@](C)(C(=O)O)CC2)cc1C(=O)NC1CCCCCC1C(=O)Nc1cccc(S(=O)(=O)C(F)(F)F)c1 (single isomer, unassigned) [Example 516]', 8.10),
  ('COc1cc(F)c(-c2cnc([C@@H]3C[C@H]3C(=O)O)cn2)cc1C(=O)N[C@@H]1[C@H]2CC[C@H](C2)[C@@H]1C(=O)Nc1cccc(S(=O)(=O)C(F)(F)F)c1 (single isomer, unassigned) [Example 264]', 7.09);

Data request: Report pEC50 for COc1cc(F)c(O[C@H]2CC[C@@H](C(=O)O)CC2)cc1C(=O)N[C@@H]1[C@H]2CC[C@H](C2)[C@@H]1C(=O)NCC1(C)CC1 [Example 198] please.
Data returned: 5.92
